assay: M. tuberculosis growth inhibition, HTS (AID 449762);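 note: bacterial growth assessed after seven days of incubation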; conditions: M. tuberculosis H37Rv growth inhibition, 7H9 media; at 25 µM; stronger effect = higher value
The campaign covered roughly 330,000 compounds. About 1,900 (0.58%) were called active. About 4% were inconclusive and are not listed. The list is a sample of the results. Results with a measured potency or affinity are listed apart.
Below, each of the compounds is paired with its reported inhibition value.

Consider the reported inhibition for these compounds:
> print(dat)
                                   compound  assay.metric   reported.result
1  COc1cc(CC(=O)N/N=C/c2ccc([N+](=O)[O-])cc2)c([N+](=O)[O-])cc1OC    inhibition  2.69% (inactive)
2   CCCCCCNc1nc(-c2ccc(OC)cc2)c(CCC(=O)O)s1    inhibition    31% (inactive)
3  COc1ccc(-c2oc3ccc(-c4ccc(OC)nc4)cc3c2-c2ccc(OC)cc2)cc1    inhibition  3.96% (inactive)
4  CN(Cc1ccccc1)C(=S)NC(=O)c1ccc(-c2ccccc2)cc1    inhibition  26.7% (inactive)

Continue with the next compound.
// query If you can, please state the reported inhibition value of Cc1ccc(SCCN2CCC(NC(=O)OCc3ccccc3)CCC2=O)cc1 (configuration not stated) .
// result -5.79% (inactive)
